Entries with their measured IC50, system TYK2 (Homo sapiens (Human)):

> print(dat)
                                   molecule  value.reported
1  Cc1cc(Nc2ncc(C)c(N3CC(CC#N)(N4CCN5CC6(CC6)C[C@H]5C4)C3)n2)sn1 [E117-G]          < 5 nM
2  Cc1cnc(Nc2ccccc2)nc1N1CC(CC#N)(N2CCN3CCCC[C@H]3C2)C1         < 10 nM

Missing value: IC50, TYK2 (Homo sapiens (Human)), entry Cc1cc(Nc2nccc(N3CC(CC#N)(N4CCN5C[C@H](F)C[C@H]5C4)C3)n2)sn1 [E97a] . Fill in? < 10 nM
